target: Serine/threonine-protein kinase pim-2 (Homo sapiens) (UniProt Q9P1W9); test: Inhibition of recombinant full length GST-tagged human PIM2 expressed in baculovirus expression system at 500 nM using Ser/Thr 07 as substrate incubated for 1 hr in presence of ATP at its Km concentration by Z'-LYTE assay relative to control
Sequence (Q9P1W9 whole entry, looked up): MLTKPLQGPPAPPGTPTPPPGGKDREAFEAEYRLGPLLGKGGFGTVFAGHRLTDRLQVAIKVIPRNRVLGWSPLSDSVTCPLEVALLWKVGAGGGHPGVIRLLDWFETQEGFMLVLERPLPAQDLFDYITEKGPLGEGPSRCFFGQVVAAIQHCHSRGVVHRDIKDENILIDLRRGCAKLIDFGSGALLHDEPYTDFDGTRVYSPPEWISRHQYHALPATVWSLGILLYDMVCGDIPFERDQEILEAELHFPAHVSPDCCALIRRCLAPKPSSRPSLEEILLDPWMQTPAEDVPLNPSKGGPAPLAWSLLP
Entries and their inhibition values follow.
Reported Metric: inhibition (%)

Structure As Smiles	Reported Metric	Value Reported
OCC[C@@H](Nc1ncnc2[nH]c(-c3ccccc3)cc12)c1ccccc1	inhibition	6
OC[C@@H](Nc1ncnc2[nH]c(-c3ccccc3)cc12)c1ccccc1	inhibition	9
COc1ccccc1-c1cc2c(N[C@H](CO)c3ccccc3)ncnc2[nH]1	inhibition	5
CCOc1ccccc1-c1cc2c(N[C@H](CO)c3ccccc3)ncnc2[nH]1	inhibition	2
CN(C)CCNCc1ccc(-c2cc3c(N[C@H](CO)c4ccccc4)ncnc3[nH]2)cc1F	inhibition	-5

---

Target: Testis-specific serine/threonine-protein kinase 2 (Homo sapiens) (UniProt Q96PF2)
Sequence (whole entry): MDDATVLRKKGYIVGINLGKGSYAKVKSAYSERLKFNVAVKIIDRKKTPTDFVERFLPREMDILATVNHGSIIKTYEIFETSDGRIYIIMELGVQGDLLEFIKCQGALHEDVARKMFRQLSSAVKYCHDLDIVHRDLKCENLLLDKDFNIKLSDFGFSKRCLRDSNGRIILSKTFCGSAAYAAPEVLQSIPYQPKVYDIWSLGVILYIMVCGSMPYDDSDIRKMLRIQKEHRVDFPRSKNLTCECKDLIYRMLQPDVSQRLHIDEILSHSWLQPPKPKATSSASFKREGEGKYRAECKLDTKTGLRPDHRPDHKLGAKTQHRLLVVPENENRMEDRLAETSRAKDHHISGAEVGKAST
Assay: Inhibition of recombinant full length human His-tagged STK22B expressed in baculovirus expression system at 500 nM using Ser/Thr 04 as substrate incubated for 1 hr in presence of ATP at its Km concentration by Z'-LYTE assay relative to control
In this section we review reported inhibition values for a set of compounds.
Reported Metric: inhibition

Structure As Smiles	Test System	Value Reported
COc1ccccc1-c1cc2c(N[C@H](CO)c3ccccc3)ncnc2[nH]1	Testis-specific serine/threonine-protein kinase 2 (Homo sapiens) (UniProt Q96PF2)	-2%
CN(C)CCNCc1ccc(-c2cc3c(N[C@H](CO)c4ccccc4)ncnc3[nH]2)cc1F	Testis-specific serine/threonine-protein kinase 2 (Homo sapiens) (UniProt Q96PF2)	-6%
OCC[C@@H](Nc1ncnc2[nH]c(-c3ccccc3)cc12)c1ccccc1	Testis-specific serine/threonine-protein kinase 2 (Homo sapiens) (UniProt Q96PF2)	7%
OC[C@@H](Nc1ncnc2[nH]c(-c3ccccc3)cc12)c1ccccc1	Testis-specific serine/threonine-protein kinase 2 (Homo sapiens) (UniProt Q96PF2)	-3%
CCOc1ccccc1-c1cc2c(N[C@H](CO)c3ccccc3)ncnc2[nH]1	Testis-specific serine/threonine-protein kinase 2 (Homo sapiens) (UniProt Q96PF2)	2%

---

biological target: Vascular endothelial growth factor receptor 1 (Homo sapiens); assay: Inhibition of recombinant human GST-tagged FLT1 catalytic domain (781 to 1338 residues) expressed in baculovirus expression system at 500 nM using Tyr 04 peptide as substrate incubated for 1 hr in presence of ATP at its Km concentration by Z'-LYTE assay relative to control
Form field: inhibition (one value per entry).

Structure As Smiles	Units	inhibition
OC[C@@H](Nc1ncnc2[nH]c(-c3ccccc3)cc12)c1ccccc1	%	8
COc1ccccc1-c1cc2c(N[C@H](CO)c3ccccc3)ncnc2[nH]1	%	5
OCC[C@@H](Nc1ncnc2[nH]c(-c3ccccc3)cc12)c1ccccc1	%	-4
CCOc1ccccc1-c1cc2c(N[C@H](CO)c3ccccc3)ncnc2[nH]1	%	3
CN(C)CCNCc1ccc(-c2cc3c(N[C@H](CO)c4ccccc4)ncnc3[nH]2)cc1F	%	12

Taken from ChEMBL document CHEMBL4715760.
